B1: Pistol ribozyme (parent)
chain: GGGUCGUUGUUCCAUAAUCGCGUGGAUAUGGCACGCAAGUUUCUACCGGGCACCGUAAAUGUCCGACUGGAGCCGUUCGGGCGGCUAUAAACAGACCUCAGGCCCGAAGCGUGGCGGCACCUGCCGCCGGUGGUAAAAAAGAUCGGAAGAGCACACGUCU

variants of: B1; assay: aptazyme ON/OFF ratio, guanine; higher = stronger switching; co-transcriptional cleavage with and without guanine
Assignment: determine reported aptazyme ON/OFF ratio for the given variants.
Give bare numbers.

# annotated cases, reported aptazyme ON/OFF ratio shown
- residue.change: "U7G U8A G9A U10C C12A C13A"
  measured.value: 1.07
- residue.change: "G9A U10C C12G C13G"
  measured.value: 1.23
- residue.change: "U7A U8G G9C U10C U11A C13A"
  measured.value: 1.16
- residue.change: "U7C U8C G9U C13U"
  measured.value: 1.23

I would be grateful if you could provide aptazyme ON/OFF ratio for each of the following entries.
1. U8G G9C U10G U11G C12G C13U
2. U7C U8C U10C U11C C12A C13G
3. U7G U10C U11C C12U C13G
4. U7C U10C U11G C13U
5. U7C U8C G9U U10C C12G C13U
6. U7C G9C U10G U11A C12A C13A
7. U7G U8C G9U U10G U11A C12G C13G

Response line:
1.3
1.24
1.09
1.74
1.13
1.31
1.12

I would be grateful if you could provide aptazyme ON/OFF ratio for each of the following entries.
1. U8A G9U U10A U11A C13A
2. U7G U8C G9C U10C U11C C12A
3. U7A U8G G9C U10G U11G C13A
4. U7C U8A G9U U10A C12G C13A

Response line:
[1.29, 1.05, 1.19, 1.12]

I would be grateful if you could provide aptazyme ON/OFF ratio for each of the following entries.
1. U8G G9U U10G U11A
2. U7C U8A G9A U11C C12A C13A
3. U7A U8A G9A U10G U11G C12A C13A
4. U7A G9C U10G U11A C12A C13G
5. U7G U8G U10C U11C C12G C13G
6. U8G G9U U10A C12G C13G
7. U7G U8C G9A U10G U11C C12A C13U

Response line:
1. 1.09
2. 1.15
3. 1.2
4. 1.08
5. 1.2
6. 1.12
7. 1.19
